Source: patent US7531577B2

Counter-ions that a name gives are not always drawn.
measured-property: melting point

>  <compound>
CN(c1ccc2c(c1)CCCC2CN)S(=O)(=O)c1cccc(F)c1 (stereo not drawn) (as salt: oxalate)

>  <melting point>
176 to 177 °C

$$$$
>  <compound>
CC(=O)NCC1CCCc2cc(NS(=O)(=O)c3cccc(F)c3)ccc21 (stereo not drawn)

>  <melting point>
136 to 137 °C

$$$$
>  <compound>
O=CNCC1CCCc2cc(NS(=O)(=O)c3cccc(F)c3)ccc21 (stereo not drawn)

>  <melting point>
143 to 144 °C

$$$$
>  <compound>
NCC1CCCc2cc(NS(=O)(=O)c3ccccc3)ccc21 (stereo not drawn)

>  <melting point>
164 to 165 °C

$$$$
>  <compound>
NC(=O)NCC1CCCc2cc(NS(=O)(=O)c3cccc(F)c3)ccc21 (stereo not drawn)

>  <melting point>
162 to 163 °C

$$$$

Let us move to another entry and its melting point.
Read the entry CNCC1CCCc2cc(NS(=O)(=O)c3cccc(F)c3)ccc21 (stereo not drawn) (as salt: oxalate) and write its reported melting point.
135 to 136 °C
